Measured kon, listed per entry.
Target: T1, rat serum albumin (rat, UniProt P02770 25-608)
T1 construct: Bought protein, immobilized on a CM5 chip by amine coupling; also called Rat SA
Test: SPR (Biacore 8K), albumin immobilized on CM5 chip, 25 C, 1:1 kinetic fit
Description: The immobilization of the serum albumin to a Series S Sensor Chip CM5 surface is performed according to the manufacturer's instructions (Amine Coupling Kit BR-1000-50). Briefly, carboxyl groups on the sensor chip surfaces (flow cell 1 and 2) are activated by injecting 70 μL of a mixture containing 75 mg/mL EDC and 11.5 mg/mL NHS at 10 μL/min. […]
Record the value in M⁻¹ s⁻¹, omitting the unit from your answer.

Field: example entries. Status: answers known.
Exercise: Provide one value: measured kon of RLN Analog 10 (other, Single-chain fusion: RLN2 B chain (desB1) - L2 - RLN2 A chain - (PGPQ)8 L1 - VHH (C-terminal)) SWMEEVIKLCGRELVRAQIAICGMSTWSGGGSGGSGGGQLYSALANKCCHVGCTKRSLARFCPGPQPGPQPGPQPGPQPGPQPGPQPGPQPGPQEVQLLESGGGLVQPGGSLRLSCAASGRYIDETAVAWFRQAPGKGREFVAGIGGGVDITYYADSVKGRFTISRDNSKNTLYLQMNSLRPEDTAVYYCAARPGRPLITSKVADLYPYWGQGTLVTVSSPP
Key: 630000

Exercise: Provide one value: measured kon of RLN Analog 2 (other, Single-chain fusion: VHH - (PGPA)8 L1 - RLN2 A chain - L2 - RLN2 B chain (desB1)) EVQLLESGGGLVQPGGSLRLSCAASGRYIDETAVAWFRQAPGKEREFVAGIGGGVDITYYADSVKGRFTISRDNSKNTLYLQMNSLRPEDTAVYYCAARPGRPLITSKVADLYPYWGQGTLVTVSSPGPAPGPAPGPAPGPAPGPAPGPAPGPAPGPAQLYSALANKCCHVGCTKRSLARFCGGGSGGSGGGSWMEEVIKLCGRELVRAQIAICGMSTWS
Key: 980000

Exercise: Provide one value: measured kon of RLN Analog 6 (other, Single-chain fusion: RLN2 B chain (desB1) - L2 - RLN2 A chain - PGPQ-repeat L1 - VHH (C-terminal)) SWMEEVIKLCGRELVRAQIAICGMSTWSGGGSGGSGGGQLYSALANKCCHVGCTKRSLARFCPGPQPGPQPGPQPGPQPGPQPGPQPGPQPGPQEVQLLESGGGLVQPGGSLRLSCAASGRYIDETAVAWFRQAPGKEREFVAGIGGGVDITYYADSVKGRFTISRDNSKNTLYLQMNSLRPEDTAVYYCAARPGRPLITSKVADLYPYWGQGTLVTVSSPP
Key: 490000

Exercise: Provide one value: measured kon of RLN Analog 14 (other, Single-chain fusion: VHH - (PGPQ)8 L1 - RLN2 A chain (desA1-4) - L2 - RLN2 B chain (desB1)) EVQLLESGGGLVQPGGSLRLSCAASGRYIDETAVAWFRQAPGKGREFVAGIGGGVDITYYADSVKGRFTISRDNSKNTLYLQMNSLRPEDTAVYYCAARPGRPLITSKVADLYPYWGQGTLVTVSSPGPQPGPQPGPQPGPQPGPQPGPQPGPQPGPQALANKCCHVGCTKRSLARFCGGGSGGSGGGSWMEEVIKLCGRELVRAQIAICGMSTWS
Key: 1.4e+06

***
Exercise: Provide one value: measured kon of RLN Analog 7 (other, Single-chain fusion: VHH - (G4Q)5 L1 - RLN2 B chain (desB1) - L2 - RLN2 A chain) EVQLLESGGGLVQPGGSLRLSCAASGRYIDETAVAWFRQAPGKGREFVAGIGGGVDITYYADSVKGRFTISRDNSKNTLYLQMNSLRPEDTAVYYCAARPGRPLITSKVADLYPYWGQGTLVTVSSGGGGQGGGGQGGGGQGGGGQGGGGQSWMEEVIKLCGRELVRAQIAICGMSTWSGGGSGGSGGGQLYSALANKCCHVGCTKRSLARFC
Key: 2e+06

Provenance of the data: patent US20260125446A1
